Assay: PK study in SD rats after a single intravenous administration
Assay type: in vivo
Settings: Sprague-Dawley (SD), rat, plasma, 2 mg/kg, 10 h
RECORDED METRIC: concentration at 10 h (ng/mL)
Write down the numeric answer in ng/mL and omit the unit.

Sample CC1(C)C[C@@H](Nc2cccc(-c3sc(C(=O)O)c(OCC(=O)O)c3Cl)c2)CCN1S(=O)(=O)Cc1cccc(NC(=O)N2CCC(c3ccc4c5c(cccc35)C(=O)N4[C@H]3CCC(=O)NC3=O)CC2)c1 [Ref. Cpd, reference compound] ; concentration at 10 h observed: 18.9

---

Test: PK study in SD rats after a single intravenous administration
Assay type: in vivo
Settings: Sprague-Dawley (SD), rat, plasma, 2 mg/kg, 4 h
Method: A PK study of the compounds after a single intravenous administration. SD rats were randomly assigned to 5 groups (3 rats/group). Blood samples were collected from animals at 0.083 h, 0.25 h, 0.5 h, 1 h, 2 h, 4 h, 8 h, 10 h and 24 h after administration. […] The concentration of compounds in plasma were determined by an LC-MS/MS method with the lower limit of quantitation (LLOQ) of 0.50 ng/mL. Pharmacokinetic parameters were calculated with WinNonlin to assess the PK characteristics in SD rats. […]
RECORDED METRIC: concentration at 4 h (ng/mL)
Return type: number; implicit unit ng/mL.

Noted for CC1(C)C[C@@H](Nc2cccc(-c3sc(C(=O)O)c(OCC(=O)O)c3Cl)c2)CCN1S(=O)(=O)Cc1cccc(NC(=O)N2CCC(c3ccc4c5c(cccc35)C(=O)N4[C@H]3CCC(=O)NC3=O)CC2)c1 [Ref. Cpd, reference compound] : its concentration at 4 h reads 79.4
